Biological target: P2Y purinoceptor 12 (Homo sapiens)
Sequence (Q9H244 whole entry): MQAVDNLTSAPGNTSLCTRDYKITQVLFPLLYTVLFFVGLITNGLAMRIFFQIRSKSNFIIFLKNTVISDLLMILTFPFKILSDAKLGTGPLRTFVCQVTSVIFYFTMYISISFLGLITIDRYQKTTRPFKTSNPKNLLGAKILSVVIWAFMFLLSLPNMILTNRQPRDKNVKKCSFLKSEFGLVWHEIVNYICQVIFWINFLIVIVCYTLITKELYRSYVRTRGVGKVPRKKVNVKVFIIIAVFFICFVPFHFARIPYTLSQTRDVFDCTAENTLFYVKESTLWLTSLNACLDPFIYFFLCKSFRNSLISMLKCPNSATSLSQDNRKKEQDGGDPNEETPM
Assay: Displacement of [33P]ADP from human recombinant P2Y12 receptor expressed in CHO cells
pKi: −log10 of the molar value.
Returns met if the recorded pKi is greater than or equal to 8, and not met otherwise.

// known answers, use as guide
INSERT INTO results (compound, label_class) VALUES
  ('CCCCCOC(=O)N1CCN(C(=O)[C@H](CCC(=O)O)NC(=O)c2cc(CCCN(CC)CC)cc(-c3ccccc3)n2)CC1', 'not met'),
  ('CCCCCOC(=O)N1CCN(C(=O)[C@H](CCC(=O)O)NC(=O)c2cc(C(=O)N3CCOCC3)cc(-c3ccccc3)n2)CC1', 'met'),
  ('CCCCOC(=O)N1CCN(C(=O)[C@H](CCC(=O)O)NC(=O)c2cc(OC(=O)N(C)C3CCOC3)cc(-c3ccccc3)n2)CC1 (stereo not given in full)', 'met'),
  ('CCCCCOC(=O)N1CCN(C(=O)[C@H](CCC(=O)O)NC(=O)c2cc(CCC(=O)N3CCOCC3)cc(-c3ccccc3)n2)CC1', 'met'),
  ('CCCCCOC(=O)N1CCN(C(=O)[C@H](CCC(=O)O)NC(=O)c2cc(C(=O)N(C)CC)cc(-c3ccccc3)n2)CC1', 'met');

## Input Is reported pKi greater than or equal to 8 here: CCCCCOC(=O)N1CCN(C(=O)[C@H](CCC(=O)O)NC(=O)c2cc(NC(=O)CN(C)C)cc(-c3ccccc3)n2)CC1
## Output met

## Input Please answer likewise for CCCCOC(=O)N1CCN(C(=O)[C@H](CCC(=O)O)NC(=O)c2cc(OC3CCN(C(C)=O)CC3)cc(-c3ccccc3)n2)CC1
## Output met

## Input Please answer likewise for CC(C)CN1CCN(C(=O)[C@H](CCC(=O)O)NC(=O)c2cccc(-c3ccccc3)n2)CC1
## Output not met

## Input Please answer likewise for CCCCCS(=O)(=O)N1CCN(C(=O)[C@H](CCC(=O)O)NC(=O)c2cccc(-c3ccccc3)n2)CC1
## Output not met

Origin of values: ChEMBL document CHEMBL1157562
